- ASSAY INFO: Compartmental PK model fitted to plasma data of the 400 mg fed cohort
- Format: in vivo, healthy volunteers (human)
- ASSAY CONTEXT: human, plasma, oral, median, compartmental PK parameter, n = 10, read-out: T1/2,λz (converted)
OBSERVATION TYPE: half-life (h)
Numbers only, in h.

(Q) Need half-life, item CC(C)(C)OC(=O)N[C@H]1CCCCC/C=C\[C@@H]2C[C@@]2(C(=O)NS(=O)(=O)C2CC2)NC(=O)[C@@H]2C[C@@H](OC(=O)N3Cc4cccc(F)c4C3)CN2C1=O
(A) 1.53

* * *

- MEASURED TARGET: NS3-NS4 (Hepatitis C virus genotype 1a)
- Sequence (P27958 1027-1657): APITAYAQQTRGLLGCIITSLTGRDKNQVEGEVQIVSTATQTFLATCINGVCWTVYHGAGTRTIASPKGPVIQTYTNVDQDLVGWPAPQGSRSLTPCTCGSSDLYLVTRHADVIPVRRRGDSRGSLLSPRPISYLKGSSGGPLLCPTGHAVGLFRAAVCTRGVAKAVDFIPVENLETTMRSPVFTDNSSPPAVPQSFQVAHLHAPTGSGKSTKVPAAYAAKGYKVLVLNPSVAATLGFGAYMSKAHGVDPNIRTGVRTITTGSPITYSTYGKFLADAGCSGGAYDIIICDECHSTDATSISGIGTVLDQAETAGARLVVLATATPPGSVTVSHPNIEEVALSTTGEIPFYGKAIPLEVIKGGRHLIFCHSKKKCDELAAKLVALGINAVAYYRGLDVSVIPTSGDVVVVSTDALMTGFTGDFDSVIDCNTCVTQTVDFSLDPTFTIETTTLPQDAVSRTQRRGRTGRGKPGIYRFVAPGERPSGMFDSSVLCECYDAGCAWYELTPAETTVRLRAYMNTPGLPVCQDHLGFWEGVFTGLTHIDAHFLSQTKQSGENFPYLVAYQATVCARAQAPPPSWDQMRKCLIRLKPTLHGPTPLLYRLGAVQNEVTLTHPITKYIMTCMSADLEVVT
- Sequence (P27958 1658-1711): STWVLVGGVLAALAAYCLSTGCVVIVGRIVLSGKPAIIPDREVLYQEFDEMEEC
- ASSAY INFO: cell-based
- ASSAY CONTEXT: EC50, NS3-NS4 activity
Field: EC50. Provide a value for each of the compounds that follow.

MOL SMILES | EC50
CC(C)(C)OC(=O)N[C@H]1CCCCC/C=C\[C@@H]2C[C@@]2(C(=O)NS(=O)(=O)c2cccc(F)c2)NC(=O)[C@@H]2C[C@@H](OC(=O)N3Cc4cccc(F)c4C3)CN2C1=O | < 100 nM
O=C1N[C@]2(C(=O)NS(=O)(=O)C3CC3)C[C@H]2/C=C\CCCCC[C@H](Nc2nc(-c3ccccc3Cl)cs2)C(=O)N2C[C@H](OC(=O)N3Cc4cccc(F)c4C3)C[C@@H]12 | < 100 nM
O=C1N[C@]2(C(=O)NS(=O)(=O)C3CC3)C[C@H]2/C=C\CCCCC[C@H](Nc2nc(-c3ccncc3)cs2)C(=O)N2C[C@H](OC(=O)N3Cc4cccc(F)c4C3)C[C@@H]12 | < 100 nM
CC(C)(C)OC(=O)N[C@H]1CCCCC/C=C\[C@@H]2C[C@@]2(C(=O)NS(=O)(=O)Cc2ccc(Cl)cc2Cl)NC(=O)[C@@H]2C[C@@H](OC(=O)N3Cc4cccc(F)c4C3)CN2C1=O | 100 to 1000 nM
Cc1cccc(CS(=O)(=O)NC(=O)[C@@]23C[C@H]2/C=C\CCCCC[C@H](NC(=O)OC(C)(C)C)C(=O)N2C[C@H](OC(=O)N4Cc5cccc(F)c5C4)C[C@H]2C(=O)N3)c1 | 100 to 1000 nM
CC(C)(C)OC(=O)N[C@H]1CCCCC/C=C\[C@@H]2C[C@@]2(C(=O)NOc2ccc(Cl)cc2)NC(=O)[C@@H]2C[C@@H](OC(=O)N3Cc4cccc(F)c4C3)CN2C1=O | 1000 to 10000 nM
CC(C)ONC(=O)[C@@]12C[C@H]1CCCCCCC[C@H](NC(=O)OC(C)(C)C)C(=O)N1C[C@H](OC(=O)N3Cc4cccc(F)c4C3)C[C@H]1C(=O)N2 | < 100 nM
O=C(N[C@H]1CCCCC/C=C\[C@@H]2C[C@@]2(C(=O)NS(=O)(=O)C2CC2)NC(=O)[C@@H]2C[C@@H](OC(=O)N3Cc4cccc(F)c4C3)CN2C1=O)OC1CCOCC1 | < 100 nM

Return reported EC50 values for all items listed beneath this line.
1. CCCC1(S(=O)(=O)NC(=O)[C@@]23C[C@H]2CCCCCCC[C@H](NC(=O)OC(C)(C)C)C(=O)N2C[C@H](OC(=O)N4Cc5cccc(F)c5C4)C[C@H]2C(=O)N3)CC1
2. Cc1ccc(S(=O)(=O)NC(=O)[C@@]23C[C@H]2/C=C\CCCCC[C@H](NC(=O)OC(C)(C)C)C(=O)N2C[C@H](OC(=O)N4Cc5cccc(F)c5C4)C[C@H]2C(=O)N3)cc1

(A)
1: < 100 nM; 2: < 100 nM
